tested on: SF-539; assay: NCI tumour cell line growth inhibition, 48 h
Active and inactive are the calls of the source. Rule as the data show it: active = GI50 up to about 1.1 µM and inactive = higher.
testReadout: GI50

Solved cases below.
{"compound": "COc1ccccc1NCc1cccc2c(=O)c3ccc(Cl)cc3oc12", "systemUnderTest": "SF-539", "valueObserved": "65.2 µM (inactive)"}
{"compound": "O=c1c(C(c2cccnc2)c2c(O)oc3cc(O)ccc3c2=O)c(O)oc2cc(O)ccc12", "systemUnderTest": "SF-539", "valueObserved": "> 100 µM (inactive)"}

Below are 8 compounds. Give each one its GI50.
1. C=CCN1C(=O)/C(=C/c2ccc(OC)cc2)N=C1SC/C=C/C
2. Cc1cc(NS(=O)(=O)c2ccc(NC(NC(=O)C(C(F)(F)F)C(F)(F)F)(C(F)(F)F)C(F)(F)F)cc2)no1
3. C=C(CO)CC(O)c1ccccc1 (stereo unspecified)
4. O=c1[nH]c2nc[nH]c2c(=O)n1C1CCCCC1
5. CN(C)C(=S)/N=c1\sn(C)/c(=N\C(=S)N(C)C)n1C
6. COC(=O)c1cc(Br)c(C(=O)C(Cl)(Cl)Cl)[nH]1
7. COC(=O)C(Cc1cc(OC)c(OC)c(OC)c1)(NC(=O)c1ccccc1)P(=O)(OC)OC (stereo unspecified)
8. CCc1cccc(C)c1NC(=O)C1=C(C)NC(C)=C(C(=O)Nc2c(C)cccc2CC)C1c1ccc2c(c1)OCO2

Result:
> 100 µM (inactive)
> 100 µM (inactive)
> 100 µM (inactive)
> 100 µM (inactive)
> 100 µM (inactive)
> 100 µM (inactive)
> 100 µM (inactive)
19.7 µM (inactive)

Memo: "Cc1c2c(C(N)=O)nccc2c(C)c2c1c1ccccc1n2Cc1ccccc1" , reported GI50: 19.1 µM (inactive)
